molecular target: UniProt Q8ILY1; assay: Fluorescence-based high-throughput DNA polymerase assay (molecular beacon), primary screen and dose-response; format: biochemical; conditions: DRC-1; 90'; concentration 40
Sequence (Q8ILY1 entry or part of it): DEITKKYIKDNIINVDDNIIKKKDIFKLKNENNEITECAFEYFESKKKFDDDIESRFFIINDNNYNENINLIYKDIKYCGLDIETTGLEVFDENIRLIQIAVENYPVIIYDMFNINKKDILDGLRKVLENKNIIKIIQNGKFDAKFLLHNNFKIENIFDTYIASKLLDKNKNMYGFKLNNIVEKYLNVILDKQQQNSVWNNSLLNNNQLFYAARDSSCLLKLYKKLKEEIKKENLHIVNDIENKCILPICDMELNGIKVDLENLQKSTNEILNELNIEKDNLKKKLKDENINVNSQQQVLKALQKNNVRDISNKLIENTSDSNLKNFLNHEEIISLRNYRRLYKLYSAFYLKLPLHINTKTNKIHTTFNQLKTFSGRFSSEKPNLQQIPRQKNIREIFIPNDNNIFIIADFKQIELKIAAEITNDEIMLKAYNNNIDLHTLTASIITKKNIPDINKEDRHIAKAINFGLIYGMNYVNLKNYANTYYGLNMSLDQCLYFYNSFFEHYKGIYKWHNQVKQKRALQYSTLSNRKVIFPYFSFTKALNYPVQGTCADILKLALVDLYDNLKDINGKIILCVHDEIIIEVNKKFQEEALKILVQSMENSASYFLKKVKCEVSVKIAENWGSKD
Observable: % inhibition Apol 90' (%)
// return numeric value only (unit: %, not printed)

Below: 8 molecules and their reported % inhibition Apol 90'.
O=C(NNC(=O)C(F)(F)Sc1ccccc1)c1ccsc1 [Molecule 68, O=C(C(Sc1ccccc1)(F)F)NNC(=O)c1cscc1]: 44.8257
Cn1nc(C(=O)N2CCc3c(nc4cc(-c5ccccc5)[nH]n4c3=O)C2)c2ccccc21: 58
Cc1ccc(NC(=O)C2CCN(C(=O)c3cc4ccsc4[nH]3)CC2)c(Br)c1: 77
O=C(Nc1nnc(-c2cccs2)o1)c1ccc([N+](=O)[O-])o1: 40.7668
OC(C#Cc1ccccc1)c1ccco1 (stereo not drawn): 83.9315
CCCCC(=O)N1CCc2c(nc3cc(-c4ccccc4Cl)[nH]n3c2=O)C1: 71.0429
O=C1C(=Cc2ccccc2O)Oc2ccc(O)cc21: 57.9717
CCCCSc1nnc2c(n1)OC(c1ccc([N+](=O)[O-])o1)Nc1ccccc1-2 (stereo not drawn): 80.4903

Next item in the queue.
Measured % inhibition Apol 90' of CSCCC(C)(O)CNC(=O)C1CC1 (stereo not drawn) : 51.9729

---

target: UniProt:Q8ILY1; assay: Fluorescence-based high-throughput DNA polymerase assay (molecular beacon), primary screen and dose-response; assay type: biochemical; conditions: DRC-2; 40'; concentration 20;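 on % inhibition Apol 40': compound concentration given in µM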
Assign fulfilled to entries whose % inhibition Apol 40' meets or exceeds 40%; assign not fulfilled to the rest.

The examples below pair each entry with its known result.
O=C1C(=Cc2ccncc2)Oc2c1ccc1c2CN(Cc2ccc3c(c2)OCO3)CO1: not fulfilled
O=C1c2ccccc2C(=O)N1Oc1ccc([N+](=O)[O-])c([N+](=O)[O-])c1: not fulfilled

[ask] Hi, just wondering whether O=C1NCCCn2cc(S(=O)(=O)Nc3ccccc3)cc21 shows % inhibition Apol 40' of 40% or higher.
[reply] fulfilled

[ask] # bool: % inhibition Apol 40' of CCCCC(=O)N1CCc2c(nc3cc(-c4ccccc4Cl)[nH]n3c2=O)C1 >= 40%
[reply] not fulfilled

[ask] Is reported % inhibition Apol 40' greater than or equal to 40% here: O=c1[nH]c2ccc([N+](=O)[O-])cc2c(-c2ccccc2)c1Sc1nc2ccccc2o1
[reply] fulfilled

[ask] Decide: % inhibition Apol 40' of Cc1cc(C)c2c(O)nc(SCC(=O)c3ccc(O)c(O)c3)nc2n1 >= 40%?
[reply] fulfilled

[ask] Determine whether measured % inhibition Apol 40' meets or exceeds 40% for COc1ccc(-c2n[nH]cc2Oc2ccc(Cl)cc2)c(O)c1
[reply] fulfilled

[ask] Please indicate if the recorded % inhibition Apol 40' for O=C(CSc1nc2ccccc2s1)Nc1ncc([N+](=O)[O-])s1 meets or exceeds 40%.
[reply] not fulfilled

[ask] Check the entry COc1ccc(C2CC(c3ccc(Cl)cc3Cl)Nc3nc(N)nn32)cc1OC (centres unmarked) : does % inhibition Apol 40' equal or exceed 40%?
[reply] fulfilled

[ask] Answer whether % inhibition Apol 40' of NS(=O)(=O)c1ccc(NC(=O)c2ccc(N3C(=O)CCC3=O)cc2)cc1 is greater than or equal to 40%.
[reply] fulfilled

[ask] Is reported % inhibition Apol 40' greater than or equal to 40% here: Cc1cc(C)c(O)c(/N=C/c2cc([N+](=O)[O-])cc(Br)c2O)c1
[reply] not fulfilled

[ask] Is % inhibition Apol 40' for COc1ccc(NC(=O)Cn2nc3c(cc2=O)CCC3)cc1Cl at or above 40%?
[reply] fulfilled

[ask] Answer whether % inhibition Apol 40' of Cc1ccc(NC(=O)Cn2ccc3c(=O)[nH]ccc32)cc1F [Molecule 48, O=C(Cn1ccc2c1cc[nH]c2=O)Nc1ccc(c(c1)F)C] is greater than or equal to 40%.
[reply] fulfilled

[ask] Threshold query (% inhibition Apol 40' >= 40%) on O=C(CCc1csc(NC(=O)Nc2ccccc2)n1)Nc1nc2ccccc2s1
[reply] fulfilled

[ask] Does the reported % inhibition Apol 40' for Nc1c(S(=O)(=O)O)cc(Nc2ccccc2)c2c1C(=O)c1ccccc1C2=O fall at or above the 40% mark?
[reply] fulfilled
